src = PubChem BioAssay (NCI)

- Tested on: SR leukemia
- experimentDescription: NCI tumour cell line growth inhibition, 48 h
recordedEndpoint: log10(TGI) (log10 of the value in µM)
log10 TGI, µM

compound: COc1ccc2nc(NC(=O)/C(C#N)=C/c3ccccc3)sc2c1
log10(TGI): 1.34
//
compound: CNC(=O)c1ncccc1Nc1nc(Nc2cc3c(cc2OC)CCCN3C(=O)CN(C)C)nc2[nH]ccc12
log10(TGI): 0.47
//
compound: COC(=O)/C=C(/C(=O)OC)C1(C)c2cc(C(=O)OC)c(C(=O)OC)c(N)c2C(=N)N1c1ccccc1 (stereo not given)
log10(TGI): 1.77
//
compound: O=C(NCc1ccccc1)c1cc2ccccc2oc1=Nc1cccc(C(F)(F)F)c1
log10(TGI): 1.82
//
compound: O=C(/C=C/C12c3ccccc3C(c3ccccc31)C1C(=O)NC(=O)C12)c1ccccn1 (stereo not given)
log10(TGI): 0.86

### Prompt Consider the compound O=C1NC(=N[C@@H](CO)c2ccccc2)S/C1=C\c1ccc2ncccc2c1 and give its measured log10(TGI).
### Response 1.10

### Prompt Consider the compound C[C@]12CC[C@H]3[C@@H](CCC4=CC(=O)CC[C@@]43C)[C@@H]1CC[C@@H]2c1csc(N)n1 and give its measured log10(TGI).
### Response 1.10
